Tested on: MCF7 (ARE/MMP)
appliedConditions: against baseline cytotoxicity, ARE readout
measure: Toxic ratio (TR) TRARE
Hey, just send me the number, nothing else.

compound="O=S(=O)(c1ccc(O)cc1)c1ccc(OCc2ccccc2)cc1 [BPS-MPE, 4-[4-(benzyloxy)benzenesulfonyl]phenol]" targetofassay="MCF7 (ARE/MMP)" measure="Toxic ratio (TR) TRARE" testvalue=0.45
compound="CC(C)(c1ccc(O)c(-c2ccccc2)c1)c1ccc(O)c(-c2ccccc2)c1 [BPPH, 2,2-Bis(2-hydroxy-5-biphenylyl)propane]" targetofassay="MCF7 (ARE/MMP)" measure="Toxic ratio (TR) TRARE" testvalue=1.43
compound=CCC(C)(c1ccc(O)cc1)c1ccc(O)cc1 targetofassay="MCF7 (ARE/MMP)" measure="Toxic ratio (TR) TRARE" testvalue=0.58

In the following, a different compound is considered.
q: Please tell me the measured Toxic ratio (TR) TRARE for O=C(OCc1ccccc1)c1ccc(O)cc1 [BzPB, Benzyl 4-hydroxybenzoate] ; system: MCF7 (ARE/MMP).
a: 0.38
